For each entry below, report its pIC50 value.
# measured on: CyclinA2/CDK2 (Homo sapiens, UniProt P20248)
# Construct: purchased CRELUX Protein Services
# protocol notes: Fluorescence Polarization (FP) competitive binding assay, Cyclin A2/Cdk2;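 note: plates equilibrated two hours at room temperature before polarization reading, IC50 fitted from eight-concentration compound titration curves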
# assay context: 8 nM Cyclin A2/Cdk2, 2 nM FAM probe; average of 2-3 independent experiments; read-out: Cyclin A FP IC50
*1 amine or outer side, *2 acyl side, *3 side chain or, on linkers, in order; H or OH if unused. Where a SMILES comes first, the peptide text is derived from it. Bridges are numbered along the chain shown (N, C = ends). [ ]: non-standard residue; d: D form. The star is where a group is joined. X183 = CN([C@@H](Cc1cc(Cl)ccc1-c1ccc2nncn2c1)C(=O)[*:2])[*:1]; X26 = CN([C@@H](Cc1cc(F)ccc1-c1cnn(C2CC2)c1)C(=O)[*:2])[*:1]; NMehhhLys(Me) = CN([C@@H](CCCCCCCN(C)[*:3])C(=O)[*:2])[*:1]; Cyclobutanecarbonyl(1-CF3) = O=C(C1(C(F)(F)F)CCC1)*; cBuCO(3,3-F2-1-CF3) = O=C(C1(C(F)(F)F)CC(F)(F)C1)*; Pro(trans-4-F) = O=C(O)[C@@H]1C[C@@H](F)CN1; Gly(cPr) = N[C@H](C(=O)O)C1CC1
Answers are plain numbers, as −log10 of the molar value.

CC(C)C[C@@H]1NC(=O)[C@@H](N(C)C(=O)[C@@H](NC(=O)[C@@H]2C[C@@H](F)CN2C(=O)C2(C(F)(F)F)CCC2)C2CC2)CCCCCCCN(C)C(=O)[C@H](Cc2cc(F)ccc2-c2cnn(C3CC3)c2)N(C)C1=O [Example 186] ({Cyclobutanecarbonyl(1-CF3)}-[Pro(trans-4-F)][Gly(cPr)][NMehhhLys(Me)]L[X26]; lactam 3-C)
7.70

Now let's try a different one.
Query :: Data request, read-out pIC50, for CC(C)C[C@@H]1NC(=O)[C@@H](N(C)C(=O)[C@@H](NC(=O)[C@@H]2C[C@@H](F)CN2C(=O)C2(C(F)(F)F)CC(F)(F)C2)C2CC2)CCCCCCCN(C)C(=O)[C@H](Cc2cc(Cl)ccc2-c2ccc3nncn3c2)N(C)C1=O [Example 178] ({cBuCO(3,3-F2-1-CF3)}-[Pro(trans-4-F)][Gly(cPr)][NMehhhLys(Me)]L[X183]; lactam 3-C)
Result :: 7.30

====

# measured on: CyclinE1/CDK2 (Homo sapiens, UniProt P24864)
# Construct: purchased Eurofins, discovery 14-475
# protocol notes: Fluorescence Polarization (FP) competitive binding assay, Cyclin E1/Cdk2;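 note: readings taken after two-hour equilibration at room temperature in HEPES buffer with NaCl, DTT, NP-40 and BSA, IC50 fitted from eight-concentration serial dilution series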
pIC50: −log10 of the molar value. *1 amine or outer side, *2 acyl side, *3 side chain or, on linkers, in order; H or OH if unused. Where a SMILES comes first, the peptide text is derived from it. Bridges are numbered along the chain shown (N, C = ends). [ ]: non-standard residue; d: D form. The star is where a group is joined. X61 = Cc1nc2c(F)cc(-c3ccc(Cl)cc3C[C@@H](C(=O)[*:2])N(C)[*:1])cc2n1C(C)C; X89 = CN([C@@H](Cc1cc(Cl)ccc1-c1cnn(CC#N)c1)C(=O)[*:2])[*:1]; NMehhhLys(Me) = CN([C@@H](CCCCCCCN(C)[*:3])C(=O)[*:2])[*:1]; NMe3Pal(2-OMe,5-Cl) = CN[C@@H](Cc1cc(Cl)cnc1OC)C(=O)O; Oxane2carbonyl(2R-CF3) = O=C([C@@]1(C(F)(F)F)CCCCO1)*; cBuCO(3,3-F2-1-CF3) = O=C(C1(C(F)(F)F)CC(F)(F)C1)*; X25 = CCOc1ncc(Cl)cc1C[C@@H](C(=O)[*:2])N(C)[*:1]; Pro(trans-4-F) = O=C(O)[C@@H]1C[C@@H](F)CN1; Gly(cPr) = N[C@H](C(=O)O)C1CC1
Everything with pIC50 lower than 6 is criterion not met; everything else, including exactly 6, is criterion met.

Take a look at these entries with their results.
COc1ncc(Cl)cc1C[C@H]1C(=O)N(C)CCCCCCC[C@H](N(C)C(=O)[C@@H](NC(=O)[C@@H]2C[C@@H](F)CN2C(=O)C2(C(F)(F)F)CC(F)(F)C2)C2CC2)C(=O)N[C@@H](CC(C)C)C(=O)N1C [Example 222] ({cBuCO(3,3-F2-1-CF3)}-[Pro(trans-4-F)][Gly(cPr)][NMehhhLys(Me)]L[NMe3Pal(2-OMe,5-Cl)]; lactam 3-C)
criterion met
Cc1nc2c(F)cc(-c3ccc(Cl)cc3C[C@H]3C(=O)N(C)CCCCCCC[C@H](N(C)C(=O)[C@@H](NC(=O)[C@@H]4C[C@@H](F)CN4C(=O)C4(C(F)(F)F)CC(F)(F)C4)C4CC4)C(=O)N[C@@H](CC(C)C)C(=O)N3C)cc2n1C(C)C [Example 231] ({cBuCO(3,3-F2-1-CF3)}-[Pro(trans-4-F)][Gly(cPr)][NMehhhLys(Me)]L[X61]; lactam 3-C)
criterion not met
CC(C)C[C@@H]1NC(=O)[C@@H](N(C)C(=O)[C@@H](NC(=O)[C@@H]2C[C@@H](F)CN2C(=O)C2(C(F)(F)F)CC(F)(F)C2)C2CC2)CCCCCCCN(C)C(=O)[C@H](Cc2cc(Cl)ccc2-c2cnn(CC#N)c2)N(C)C1=O [Example 216] ({cBuCO(3,3-F2-1-CF3)}-[Pro(trans-4-F)][Gly(cPr)][NMehhhLys(Me)]L[X89]; lactam 3-C)
criterion met

Okay, now this molecule:
Query :: Textbook exercise: given the entry CCOc1ncc(Cl)cc1C[C@H]1C(=O)N(C)CCCCCCC[C@H](N(C)C(=O)[C@@H](NC(=O)[C@@H]2C[C@@H](F)CN2C(=O)[C@@]2(C(F)(F)F)CCCCO2)C2CC2)C(=O)N[C@@H](CC(C)C)C(=O)N1C [Example 226] ({Oxane2carbonyl(2R-CF3)}-[Pro(trans-4-F)][Gly(cPr)][NMehhhLys(Me)]L[X25]; lactam 3-C) , state whether its pIC50 is greater than or equal to 6.
Result :: criterion met

Values from patent US20240408169A1
